# method.description: mouse liver microsomal stability (Microsome Assay Protocol)
# Type: in vitro ADME
# conditions.used: pH 7.4; mouse liver microsomes, NADPH, 37° C.; read-out: MLM t1/2, min
# Protocol: ND refers to not disclosed. • 1. Buffer A: 1.0 L of 0.1 M monobasic Potassium Phosphate buffer containing 1.0 mM EDTA Buffer B: 1.0 L of 0.1 M Dibasic Potassium Phosphate buffer containing 1.0 mM EDTA • Buffer C: 0.1 M Potassium Phosphate buffer, 1.0 mM EDTA, pH 7.4 by titrating 700 mL of buffer B with buffer A while monitoring with a pH meter. • 2. […]
Lab note: anything with half-life at 1 µM below 20 min is marked True; values at 20 min or higher are marked False.

# example entries with known answers
>>> label_class("CN(C)CCCOc1ccc2c(=O)n(CC3(O)CCN(C(=O)C(CCCNC(=O)c4ccc5c(Cl)c6c(nc5c4)CCCC6)Cn4ccc(F)n4)CC3)cnc2c1 (stereo not drawn)")
"True"
>>> label_class("CN(C)CCC(=O)Nc1ccc2c(=O)n(CC3(O)CCN(C(=O)c4cn(CCNC(=O)c5ccc6c(Cl)ccnc6c5)nc4Cc4ccccc4)CC3)cnc2c1")
"True"
>>> label_class("CN(C)CCC(=O)Nc1ccc2c(=O)n(CC3(O)CCN(C(=O)c4cn(CCNC(=O)c5ccc6c(Cl)ccnc6c5)nc4-c4ccccc4)CC3)cnc2c1")
"False"
>>> label_class("CN(C)CCC(=O)Nc1ccc2c(=O)n(CC3(O)CCN(C(=O)C4CCN(CCNC(=O)c5ccc6c(Cl)ccnc6c5)C[C@H]4c4ccccc4)CC3)cnc2c1 (stereo partly drawn)")
"False"
>>> label_class("O=C(NCCCC(Cn1ccc(F)n1)C(=O)N1CCC(O)(Cn2cnc3ccccc3c2=O)CC1)c1ccc2c(Cl)c3c(nc2c1)CCCC3 (stereo not drawn)")
"True"

-- ask Criterion: half-life at 1 µM strictly below 20 min. Is it met by CN(C)CCCOc1ccc2c(=O)n(CC3(O)CCN(C(=O)[C@H](CCCNC(=O)c4cnc5c(Cl)ccnc5c4)Cc4ccccc4)CC3)cnc2c1 ?
-- reply False

-- ask Also check CN1CCN(CCC(=O)Nc2ccc3c(=O)n(CC4(O)CCN(C(=O)[C@@H](CCCNC(=O)c5ccc6c(Cl)cc(-c7cnn(CC(F)(F)F)c7)nc6c5)Cc5ccccc5)CC4)cnc3c2)CC1
-- reply False

---

# test.target: USP7, Active human recombinant protein (Homo sapiens)
# Construct: purchased CP Lot; 20200225001
# Sequence (Q93009 whole entry): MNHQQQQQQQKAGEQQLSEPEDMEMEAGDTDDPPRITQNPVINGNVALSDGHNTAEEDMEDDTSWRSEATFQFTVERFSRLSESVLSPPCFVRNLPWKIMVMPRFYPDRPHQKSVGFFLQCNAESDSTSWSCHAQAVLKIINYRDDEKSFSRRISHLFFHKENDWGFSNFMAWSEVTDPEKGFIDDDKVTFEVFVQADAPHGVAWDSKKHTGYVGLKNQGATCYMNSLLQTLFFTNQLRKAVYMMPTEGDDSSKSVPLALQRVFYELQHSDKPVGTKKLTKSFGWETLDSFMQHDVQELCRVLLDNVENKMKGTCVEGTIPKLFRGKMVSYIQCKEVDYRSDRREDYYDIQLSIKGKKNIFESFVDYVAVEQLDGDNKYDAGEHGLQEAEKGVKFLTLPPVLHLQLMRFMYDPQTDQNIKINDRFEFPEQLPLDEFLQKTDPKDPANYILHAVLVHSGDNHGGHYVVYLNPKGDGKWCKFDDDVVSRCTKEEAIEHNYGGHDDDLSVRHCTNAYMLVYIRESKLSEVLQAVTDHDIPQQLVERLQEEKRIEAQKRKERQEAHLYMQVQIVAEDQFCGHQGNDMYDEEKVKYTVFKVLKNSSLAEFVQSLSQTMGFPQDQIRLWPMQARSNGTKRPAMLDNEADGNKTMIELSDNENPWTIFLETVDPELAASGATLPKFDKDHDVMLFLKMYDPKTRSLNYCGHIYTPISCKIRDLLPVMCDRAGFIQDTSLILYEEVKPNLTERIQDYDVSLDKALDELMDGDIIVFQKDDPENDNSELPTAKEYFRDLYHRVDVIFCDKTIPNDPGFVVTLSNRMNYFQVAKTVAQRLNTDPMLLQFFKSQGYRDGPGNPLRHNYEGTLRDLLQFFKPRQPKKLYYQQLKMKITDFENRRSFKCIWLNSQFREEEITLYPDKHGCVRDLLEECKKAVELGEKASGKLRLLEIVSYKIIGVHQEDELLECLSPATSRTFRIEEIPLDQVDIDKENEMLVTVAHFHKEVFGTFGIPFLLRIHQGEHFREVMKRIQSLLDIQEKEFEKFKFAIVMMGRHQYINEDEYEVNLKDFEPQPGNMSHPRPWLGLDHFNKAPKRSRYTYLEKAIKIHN
# method.description: USP7 assay (Ubiquitin-Rhodamine 110 enzymatic assay)
# Type: biochemical
# conditions.used: read-out: IC50
# Protocol: Enzymatic Assays with Exemplary USP7 Irreversible Inhibitors ND refers to not disclosed. […] Added appropriate amount of USP7 in 1× assay Buffer to prepare 2× enzyme solution (USP7 final concentration: 0.05 nM). […] Read the plate kinetically on SpectraMax Paradigm for 20 min with excitation at 485 nm and emission at 535 nm. Copied raw data (slope) from Reader to obtain inhibition values in Excel using equation (1): […]
pIC50: −log10 of the molar value.
quantity.name: pIC50

Here are 5 compounds together with their reported answers.
>>> result("CN(C)CCC(=O)Nc1ccc2c(=O)n(CC3(O)CCN(C(=O)[C@@]4(Cc5ccccc5)CCN(CCNC(=O)c5ccc6c(Cl)ccnc6c5)C4)CC3)cnc2c1")
"< 6.00"
>>> result("CN(C)CCC(=O)Nc1ccc2c(=O)n(CC3(O)CCN(C(=O)C(CCCNC(=O)c4ccc5c(Cl)cc(O)nc5c4)Cc4ccccc4)CC3)cnc2c1 (stereo not drawn)")
"6.00 to 7.00"
>>> result("CN1CCN(CCC(=O)Nc2ccc3c(=O)n(CC4(O)CCN(C(=O)[C@H](CCCNC(=O)c5ccc6c(Cl)cc(-c7ccc(F)cc7)nc6c5)Cc5ccccc5)CC4)cnc3c2)CC1")
"< 6.00"
>>> result("CCS(=O)(=O)Nc1ccccc1-c1ccc(C(=O)N2CCC(O)(Cn3cnc4cc(NC(=O)CCN5CCN(C)CC5)ccc4c3=O)CC2)cc1")
"< 6.00"
>>> result("CN(C)CCCOc1ccc2c(=O)n(CC3(O)CCN(C(=O)[C@H](Cc4ccccc4)N(C)CCNC(=O)c4ccc5c(Cl)c(C(N)=O)cnc5c4)CC3)cnc2c1")
"< 6.00"

-- ask Which pIC50 value belongs to CC(C)c1cc(Cl)c2ccc(C(=O)NCCC[C@H](Cc3ccccc3)C(=O)N3CCC(O)(Cn4cnc5cc(OCCCN(C)C)ccc5c4=O)CC3)cc2n1 ?
-- reply > 7.70

-- ask Also check CN(C)CCC(=O)Nc1ccc2c(=O)n(CC3(O)CCN(C(=O)[C@H]4CCN(CCNC(=O)c5ccc6c(Cl)ccnc6c5)C[C@@H]4c4ccccc4)CC3)cnc2c1
-- reply < 6.00

-- ask Also check O=C(NCCCC(Cn1ccc(F)n1)C(=O)N1CCC(O)(Cn2cnc3ccccc3c2=O)CC1)c1ccc2c(Cl)c3c(nc2c1)CCCC3 (stereo not drawn)
-- reply > 7.70

-- ask Also check CN(C)CCCOc1ccc2c(=O)n(CC3(O)CCN(C(=O)[C@H](CCCNC(=O)c4ccc5c(Cl)c6c(nc5c4)CCNC6=O)Cc4ccccc4)CC3)cnc2c1
-- reply 6.00 to 7.00

-- ask Also check Cc1cc(Cl)c2ccc(C(=O)NCCC[C@H](Cc3ccccc3)C(=O)N3CCC(O)(Cn4cnc5cc(NC(=O)CCN(C)C)ccc5c4=O)CC3)cc2n1
-- reply < 6.00

-- ask Also check CN(C)CCCOc1ccc2c(=O)n(CC3(O)CCN(C(=O)C(CCCNC(=O)c4ccc5c(Cl)c6c(nc5c4)CN(C)C6=O)Cc4ccccc4)CC3)cnc2c1 (stereo not drawn)
-- reply > 7.70

-- ask Also check C=CC(=O)Nc1ccccc1N1CCC(C(=O)N2CCC(O)(Cn3cnc4cc(NC(=O)CCN5CCN(C)CC5)ccc4c3=O)CC2)C(c2ccccc2)C1 (stereo not drawn)
-- reply 6.00 to 7.00
